So I've got a bunch of variants here, and I need their normalized RNA/DNA level without ligand (log10) values.
B1: library; a variant is named by its letters at N, in order (parent)
chain: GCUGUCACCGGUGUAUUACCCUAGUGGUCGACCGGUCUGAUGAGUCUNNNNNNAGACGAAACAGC

Variants of: B1
Experiment: normalized RNA/DNA level without ligand (relative to sTRSVctl = 100) (log10 (% of sTRSVctl)); ligand: hypoxanthine (xanthine aptamer); higher = less ribozyme self-cleavage, higher mRNA level
Conditions: HEK293T, reporter: mCherry (pCS4076), ligand present: no
Kindly provide the number alone.

Request: Returns the measured normalized RNA/DNA level without ligand (log10) for the input variant. Input: `UGGUAC`
Result: 1.85

Request: Returns the measured normalized RNA/DNA level without ligand (log10) for the input variant. Input: `UCGCUC`
Result: 2.11

Request: Returns the measured normalized RNA/DNA level without ligand (log10) for the input variant. Input: `CCGAUA`
Result: 1.72

Request: Returns the measured normalized RNA/DNA level without ligand (log10) for the input variant. Input: `UAAAAU`
Result: 1.76

Request: Returns the measured normalized RNA/DNA level without ligand (log10) for the input variant. Input: `UUGUCC`
Result: 2.03

Request: Returns the measured normalized RNA/DNA level without ligand (log10) for the input variant. Input: `UUCGUU`
Result: 1.84

Request: Returns the measured normalized RNA/DNA level without ligand (log10) for the input variant. Input: `CAUUCC`
Result: 1.9

Request: Returns the measured normalized RNA/DNA level without ligand (log10) for the input variant. Input: `CACGCG`
Result: 1.88

Request: Returns the measured normalized RNA/DNA level without ligand (log10) for the input variant. Input: `AGAGCU`
Result: 1.83

Request: Returns the measured normalized RNA/DNA level without ligand (log10) for the input variant. Input: `GGCUUG`
Result: 1.66

Request: Returns the measured normalized RNA/DNA level without ligand (log10) for the input variant. Input: `UCAAUG`
Result: 1.7

Request: Returns the measured normalized RNA/DNA level without ligand (log10) for the input variant. Input: `GUCAGC`
Result: 1.79

Request: Returns the measured normalized RNA/DNA level without ligand (log10) for the input variant. Input: `CGCCAA`
Result: 1.82

Request: Returns the measured normalized RNA/DNA level without ligand (log10) for the input variant. Input: `AUCGGU`
Result: 1.6

Request: Returns the measured normalized RNA/DNA level without ligand (log10) for the input variant. Input: `CAAGUG`
Result: 1.81

Request: Returns the measured normalized RNA/DNA level without ligand (log10) for the input variant. Input: `CACGAG`
Result: 1.6

Request: Returns the measured normalized RNA/DNA level without ligand (log10) for the input variant. Input: `AGCGGC`
Result: 1.86

Request: Returns the measured normalized RNA/DNA level without ligand (log10) for the input variant. Input: `GCACCA`
Result: 1.88

Request: Returns the measured normalized RNA/DNA level without ligand (log10) for the input variant. Input: `GGAGUU`
Result: 1.88

Request: Returns the measured normalized RNA/DNA level without ligand (log10) for the input variant. Input: `CCCGCG`
Result: 1.84

Request: Returns the measured normalized RNA/DNA level without ligand (log10) for the input variant. Input: `ACCCCG`
Result: 1.45

Request: Returns the measured normalized RNA/DNA level without ligand (log10) for the input variant. Input: `ACAUGU`
Result: 1.65

Request: Returns the measured normalized RNA/DNA level without ligand (log10) for the input variant. Input: `UUGGAA`
Result: 1.77

Request: Returns the measured normalized RNA/DNA level without ligand (log10) for the input variant. Input: `CUCUGU`
Result: 1.94

Request: Returns the measured normalized RNA/DNA level without ligand (log10) for the input variant. Input: `AGAAAG`
Result: 1.41

Request: Returns the measured normalized RNA/DNA level without ligand (log10) for the input variant. Input: `UAGGGC`
Result: 1.88

Request: Returns the measured normalized RNA/DNA level without ligand (log10) for the input variant. Input: `GCAUUG`
Result: 1.4

Request: Returns the measured normalized RNA/DNA level without ligand (log10) for the input variant. Input: `UAAGGA`
Result: 1.61

Request: Returns the measured normalized RNA/DNA level without ligand (log10) for the input variant. Input: `UGGACC`
Result: 1.95

Request: Returns the measured normalized RNA/DNA level without ligand (log10) for the input variant. Input: `UCGUAG`
Result: 1.56

Request: Returns the measured normalized RNA/DNA level without ligand (log10) for the input variant. Input: `GGGUCC`
Result: 1.99

Request: Returns the measured normalized RNA/DNA level without ligand (log10) for the input variant. Input: `AACACC`
Result: 1.9

Request: Returns the measured normalized RNA/DNA level without ligand (log10) for the input variant. Input: `CGCACU`
Result: 1.89

Request: Returns the measured normalized RNA/DNA level without ligand (log10) for the input variant. Input: `CUCGCA`
Result: 1.85

Request: Returns the measured normalized RNA/DNA level without ligand (log10) for the input variant. Input: `CCGUCA`
Result: 1.86

Request: Returns the measured normalized RNA/DNA level without ligand (log10) for the input variant. Input: `AUGUUA`
Result: 1.76

Request: Returns the measured normalized RNA/DNA level without ligand (log10) for the input variant. Input: `GAUGUC`
Result: 1.92

Request: Returns the measured normalized RNA/DNA level without ligand (log10) for the input variant. Input: `GACGGC`
Result: 1.63

Request: Returns the measured normalized RNA/DNA level without ligand (log10) for the input variant. Input: `GUAAGU`
Result: 1.79

Request: Returns the measured normalized RNA/DNA level without ligand (log10) for the input variant. Input: `ACCCGU`
Result: 1.82

Request: Returns the measured normalized RNA/DNA level without ligand (log10) for the input variant. Input: `GCAUAU`
Result: 1.74

Request: Returns the measured normalized RNA/DNA level without ligand (log10) for the input variant. Input: `AUGGCC`
Result: 1.88

Request: Returns the measured normalized RNA/DNA level without ligand (log10) for the input variant. Input: `ACUGGG`
Result: 1.44

Request: Returns the measured normalized RNA/DNA level without ligand (log10) for the input variant. Input: `GGGGUA`
Result: 1.84

Request: Returns the measured normalized RNA/DNA level without ligand (log10) for the input variant. Input: `UCUAUU`
Result: 1.86

Request: Returns the measured normalized RNA/DNA level without ligand (log10) for the input variant. Input: `CAACGA`
Result: 1.79

Request: Returns the measured normalized RNA/DNA level without ligand (log10) for the input variant. Input: `UGCAUU`
Result: 1.88

Request: Returns the measured normalized RNA/DNA level without ligand (log10) for the input variant. Input: `GACGGG`
Result: 1.41

Request: Returns the measured normalized RNA/DNA level without ligand (log10) for the input variant. Input: `AAGCGU`
Result: 1.62

Request: Returns the measured normalized RNA/DNA level without ligand (log10) for the input variant. Input: `UAUCCU`
Result: 1.9

Request: Returns the measured normalized RNA/DNA level without ligand (log10) for the input variant. Input: `ACAUUU`
Result: 1.8

Request: Returns the measured normalized RNA/DNA level without ligand (log10) for the input variant. Input: `CCGCCU`
Result: 1.95

Request: Returns the measured normalized RNA/DNA level without ligand (log10) for the input variant. Input: `GCUGAC`
Result: 1.63

Request: Returns the measured normalized RNA/DNA level without ligand (log10) for the input variant. Input: `AUGAAA`
Result: 1.7

Request: Returns the measured normalized RNA/DNA level without ligand (log10) for the input variant. Input: `GUGGUC`
Result: 1.79

Request: Returns the measured normalized RNA/DNA level without ligand (log10) for the input variant. Input: `AUCUCA`
Result: 1.89

Request: Returns the measured normalized RNA/DNA level without ligand (log10) for the input variant. Input: `CUGUUU`
Result: 1.96

Request: Returns the measured normalized RNA/DNA level without ligand (log10) for the input variant. Input: `AAGGUG`
Result: 1.22

Request: Returns the measured normalized RNA/DNA level without ligand (log10) for the input variant. Input: `AGUCUC`
Result: 1.89

Request: Returns the measured normalized RNA/DNA level without ligand (log10) for the input variant. Input: `CGUUCG`
Result: 1.84

Request: Returns the measured normalized RNA/DNA level without ligand (log10) for the input variant. Input: `UUAGAA`
Result: 1.69

Request: Returns the measured normalized RNA/DNA level without ligand (log10) for the input variant. Input: `UUCCGU`
Result: 1.85

Request: Returns the measured normalized RNA/DNA level without ligand (log10) for the input variant. Input: `CGGGUU`
Result: 1.89

Request: Returns the measured normalized RNA/DNA level without ligand (log10) for the input variant. Input: `UAAUUG`
Result: 1.74

Request: Returns the measured normalized RNA/DNA level without ligand (log10) for the input variant. Input: `UUCGCG`
Result: 1.84

Request: Returns the measured normalized RNA/DNA level without ligand (log10) for the input variant. Input: `ACUGAU`
Result: 1.67

Request: Returns the measured normalized RNA/DNA level without ligand (log10) for the input variant. Input: `CGAUUA`
Result: 1.64

Request: Returns the measured normalized RNA/DNA level without ligand (log10) for the input variant. Input: `CCUUAG`
Result: 1.72

Request: Returns the measured normalized RNA/DNA level without ligand (log10) for the input variant. Input: `AUUUUA`
Result: 1.83

Request: Returns the measured normalized RNA/DNA level without ligand (log10) for the input variant. Input: `AAAUAC`
Result: 1.77

Request: Returns the measured normalized RNA/DNA level without ligand (log10) for the input variant. Input: `UCAGCC`
Result: 2

Request: Returns the measured normalized RNA/DNA level without ligand (log10) for the input variant. Input: `UGACUU`
Result: 1.89

Request: Returns the measured normalized RNA/DNA level without ligand (log10) for the input variant. Input: `AUACAG`
Result: 1.45

Request: Returns the measured normalized RNA/DNA level without ligand (log10) for the input variant. Input: `UUCUCG`
Result: 1.85

Request: Returns the measured normalized RNA/DNA level without ligand (log10) for the input variant. Input: `UGGCGG`
Result: 1.69

Request: Returns the measured normalized RNA/DNA level without ligand (log10) for the input variant. Input: `AGUUUU`
Result: 1.95

Request: Returns the measured normalized RNA/DNA level without ligand (log10) for the input variant. Input: `AAAUAG`
Result: 1.44

Request: Returns the measured normalized RNA/DNA level without ligand (log10) for the input variant. Input: `ACCUCU`
Result: 1.93

Request: Returns the measured normalized RNA/DNA level without ligand (log10) for the input variant. Input: `UGUUUU`
Result: 1.89

Request: Returns the measured normalized RNA/DNA level without ligand (log10) for the input variant. Input: `GAGACC`
Result: 1.82

Request: Returns the measured normalized RNA/DNA level without ligand (log10) for the input variant. Input: `GAUUAG`
Result: 1.39

Request: Returns the measured normalized RNA/DNA level without ligand (log10) for the input variant. Input: `AGUGCA`
Result: 1.78

Request: Returns the measured normalized RNA/DNA level without ligand (log10) for the input variant. Input: `AAUAGU`
Result: 1.61

Request: Returns the measured normalized RNA/DNA level without ligand (log10) for the input variant. Input: `ACCAGC`
Result: 1.94

Request: Returns the measured normalized RNA/DNA level without ligand (log10) for the input variant. Input: `AAAAAC`
Result: 1.8

Request: Returns the measured normalized RNA/DNA level without ligand (log10) for the input variant. Input: `GGUCAA`
Result: 1.83

Request: Returns the measured normalized RNA/DNA level without ligand (log10) for the input variant. Input: `CUGGUG`
Result: 1.76

Request: Returns the measured normalized RNA/DNA level without ligand (log10) for the input variant. Input: `UAUACU`
Result: 1.84

Request: Returns the measured normalized RNA/DNA level without ligand (log10) for the input variant. Input: `CAAUCC`
Result: 1.82

Request: Returns the measured normalized RNA/DNA level without ligand (log10) for the input variant. Input: `AUGGUA`
Result: 1.73

Request: Returns the measured normalized RNA/DNA level without ligand (log10) for the input variant. Input: `CGGAGC`
Result: 1.67
